The reported numbers originate from ChEMBL document CHEMBL5543078.

tested on: SARS-CoV-2; assay: microbe, parasite or virus in culture; settings: Severe acute respiratory syndrome coronavirus 2, RG-2674 (Beta), Vero
pEC50: −log10 of the molar value. Residues, ends and D or L forms follow the SMILES beside them. *: point of attachment. Acryloyl = C=CC(=O)*; NHBn = c1ccc(CN*)cc1; ClAc = O=C(CCl)*
Is pEC50 at least 6? Then Y. If not, N.

>>> classification("CC(C)C(=O)OC[C@H]1O[C@@H](n2ccc(NO)nc2=O)[C@H](O)[C@@H]1O [MOLNUPIRAVIR]")
"N"
>>> classification("CC(C)C[C@H](NC(=O)CCl)C(=O)N[C@@H](Cc1c[nH]c2ccccc12)C(=O)NCc1ccccc1")
"Y"
>>> classification("C=CC[C@H](NC(=O)CCl)C(=O)N[C@@H](CC=C)C(=O)N[C@H](CNCc1ccccc1)Cc1c[nH]c2ccccc12")
"N"
>>> classification("C=CC(=O)N[C@@H](CC(C)C)C(=O)N[C@@H](Cc1c[nH]c2ccccc12)C(=O)NCc1ccccc1")
"N"
>>> classification("O=C(CCl)NCC(=O)N[C@@H](Cc1c[nH]c2ccccc12)C(=O)NCc1ccccc1 (ClAc-Gly-Trp-NHBn)")
"Y"
>>> classification("C=CC(=O)N[C@@H](Cc1ccccc1)C(=O)N[C@@H](Cc1c[nH]c2ccccc12)C(=O)NCc1ccccc1 (Acryloyl-Phe-Trp-NHBn)")
"N"
>>> classification("CCC(CC)COC(=O)[C@H](C)N[P@](=O)(OC[C@H]1O[C@@](C#N)(c2ccc3c(N)ncnn23)[C@H](O)[C@@H]1O)Oc1ccccc1 [REMDESIVIR]")
"N"

###

test system: SARS-CoV-2; test: microbe, parasite or virus in culture; conditions: Severe acute respiratory syndrome coronavirus 2, RG-2674 (Beta), Vero
Non-standard residues stand in square brackets, D forms with d. Residues, ends and D or L forms follow the SMILES beside them. *: point of attachment. AllylGly = C=CC[C@H](N)C(=O)O; NHBn = c1ccc(CN*)cc1; ClAc = O=C(CCl)*
recorded_endpoint: EC50 (µM)

>>> assay_value("O=C(CCl)N[C@@H](Cc1ccccc1)C(=O)N[C@@H](Cc1c[nH]c2ccccc12)C(=O)NCc1ccccc1 (ClAc-Phe-Trp-NHBn)")
0.07
>>> assay_value("C=CC[C@H](NC(=O)CCl)C(=O)N[C@@H](Cc1c[nH]c2ccccc12)C(=O)NCc1ccccc1 (ClAc-[AllylGly]-Trp-NHBn)")
0.46
>>> assay_value("CC(C)C[C@H](NC(=O)CCl)C(=O)N[C@H](Cc1c[nH]c2ccccc12)C(=O)NCc1ccccc1")
8.93
>>> assay_value("C=CC[C@H](NC(=O)CCl)C(=O)N[C@@H](Cc1c[nH]c2ccccc12)C(=O)NCCN1CCOCC1")
5.9

###

pEC50 by entry:
tested on: SARS-CoV-2; experiment: microbe, parasite or virus in culture; conditions: Severe acute respiratory syndrome coronavirus 2, RG-2674 (Beta), Vero
pEC50: −log10 of the molar value. Residues, ends and D or L forms follow the SMILES beside them. *: point of attachment. NHBn = c1ccc(CN*)cc1; ClAc = O=C(CCl)*
recorded_endpoint: pEC50

>>> assay_value("CC(C)C[C@@H](NC(=O)CCl)C(=O)N[C@@H](Cc1c[nH]c2ccccc12)C(=O)NCc1ccccc1")
7.15
>>> assay_value("O=C(CCl)N[C@@H](Cc1ccc(O)cc1)C(=O)N[C@@H](Cc1c[nH]c2ccccc12)C(=O)NCc1ccccc1 (ClAc-Tyr-Trp-NHBn)")
5.48
>>> assay_value("CC(C)C[C@H](NC(=O)[C@H](Cc1c[nH]c2ccccc12)NC(=O)CCl)C(=O)NCc1ccccc1 (ClAc-Trp-Leu-NHBn)")
6.59

###

test system: SARS-CoV-2; assay: microbe, parasite or virus in culture; conditions: Severe acute respiratory syndrome coronavirus 2, RG-2674 (Beta), Vero
Residues, ends and D or L forms follow the SMILES beside them. *: point of attachment. NHBn = c1ccc(CN*)cc1; ClAc = O=C(CCl)*
Let's look at some molecules and their measured EC50.
recorded_endpoint: EC50

>>> assay_value("COC(=O)[C@H](CC(C)C)NC(=O)[C@H](Cc1c[nH]c2ccccc12)NC(=O)CCl (ClAc-Trp-Leu-OMe)")
"> 4 µM"
>>> assay_value("CC(C)C[C@H](NC(=O)CCl)C(=O)N[C@@H](Cc1ccccc1)C(=O)N[C@@H](Cc1c[nH]c2ccccc12)C(=O)NCc1ccccc1 (ClAc-Leu-Phe-Trp-NHBn)")
"> 20 µM"
>>> assay_value("CC(C)C[C@@H](C(=O)NCC12CC3CC(CC(C3)C1)C2)N(Cc1ccccc1)C(=O)CCl")
"> 4 µM"
>>> assay_value("COC(=O)[C@H](CCC(N)=O)NC(=O)[C@H](Cc1c[nH]c2ccccc12)NC(=O)[C@H](CC(C)C)NC(=O)CCl (ClAc-Leu-Trp-Gln-OMe)")
"> 100 µM"
